Phage binding ELISA, Anti-CD28 Fab signal in the presence of CD28 listing for selected binders.
target: T1, Anti-CD28 Fab (SEQ ID NOs: 696, 697); experiment: phage ELISA; captured anti-CD28 Fab pre-incubated with CD28 antigen as competitor, anti-M13-HRP
T1 construct: In the phage ELISA the Fab was biotinylated and captured on neutravidin coated plates
T1 sequence (VH, as listed by the source, chain 1 of 2): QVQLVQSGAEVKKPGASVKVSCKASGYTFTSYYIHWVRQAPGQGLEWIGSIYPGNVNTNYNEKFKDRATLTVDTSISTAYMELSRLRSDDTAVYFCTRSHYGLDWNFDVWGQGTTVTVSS
T1 sequence (VL, as listed by the source, chain 2 of 2): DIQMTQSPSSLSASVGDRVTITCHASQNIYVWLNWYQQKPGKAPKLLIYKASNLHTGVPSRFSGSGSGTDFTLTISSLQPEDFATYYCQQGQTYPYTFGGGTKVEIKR

Illustrative cases are given below, each with its answer.
[
  {
    "Binder": "SCAAGAMWPWPVCV (tested as crude clonal phage supernatant) [Phage-1459 peptide (SEQ ID NO: 1755)]",
    "Result": 0.06
  },
  {
    "Binder": "TCSAGAHYEWPYCL (tested as crude clonal phage supernatant) [Phage-1454 peptide (SEQ ID NO: 1750)]",
    "Result": 0.11
  },
  {
    "Binder": "TCSAGATYAWPACY (tested as crude clonal phage supernatant) [Phage-1449 peptide (SEQ ID NO: 1745)]",
    "Result": 0.14
  }
]

Next:
Recorded result, TCAAGAMWQWPVCL (tested as crude clonal phage supernatant) [Phage-1457 peptide (SEQ ID NO: 1753)] , Phage binding ELISA, Anti-CD28 Fab signal in the presence of CD28: 0.06
